Recorded protection from cytokine-induced ATP loss by entry
# method: preservation of ATP in cytokine-treated beta cells – cell-based, ATP luminescence, single point, primary screen (AID 488910)
# recorded-conditions: INS-1E cytokine-induced death, 48 h, at 10 µM, hits give high values, normalised: neutral wells 0, positive control 100
The whole screen tested about 20,000 compounds, of which about 25 (0.1%) were called active. This is one part of a sample in which actives are shown more often than they occur.
metric: protection from cytokine-induced ATP loss (%)

>>> print(df.to_string())
                               smiles_entry  endpoint_result
0  C[C@@H]1CN([C@@H](C)CO)C(=O)c2cccc(NS(=O)(=O)c3cccs3)c2O[C@@H]1CN(C)CC1CC1            -3.04
1  COc1ccc(NC(=O)N(C)C[C@@H]2Oc3ccc(NC(=O)Cn4cnnn4)cc3C(=O)N([C@H](C)CO)C[C@@H]2C)cc1             6.28
2  C[C@@H]1CN([C@H](C)CO)C(=O)c2cccc(NC(=O)Nc3ccc4c(c3)OCO4)c2O[C@@H]1CN(C)Cc1ccccc1            -9.92
3  Cc1ccc(S(=O)(=O)N(C)C[C@@H]2Oc3ccc(NC(=O)Nc4ccc5c(c4)OCO5)cc3C(=O)N([C@@H](C)CO)C[C@@H]2C)cc1             20.1
4  CC(C)NC(=O)Nc1ccc2c(c1)CC(=O)N([C@H](C)CO)C[C@@H](C)[C@H](CN(C)S(=O)(=O)c1ccccc1)O2             9.86
5  COc1ccc(NC(=O)N(C)C[C@@H]2Oc3c(NS(=O)(=O)c4ccc(OC)cc4)cccc3C(=O)N([C@H](C)CO)C[C@@H]2C)cc1             8.49
6  C[C@H](CO)N1C[C@H](C)[C@H](CN(C)C(=O)Nc2ccc(F)cc2)Oc2c(NC(=O)c3cnccn3)cccc2C1=O             8.13
